Each entry below carries its recorded melting point.

Example entries begin here.
# compound, observedValue
measured = [
    ("C=CC(=O)NCC(=O)Nc1cc(Cl)c(C)c(Cl)c1O", "225 to 227 °C"),
    ("CCC(C(=O)N(C)C)n1ccc(-c2ccccc2C)n1 (stereo unspecified)", "48 to 51 °C"),
    ("N#Cc1ccc(OCCCCOc2ccc(-c3cc4cc(C#N)ccc4o3)cc2)cc1", "186 to 188 °C"),
    ("CC1(c2ccccc2)C2=C(COC2=O)Nc2cc3c(cc21)OCO3 (stereo unspecified)", "> 260 °C"),
    ("BrCc1ccc(CCc2ccccc2)cc1", "52 to 53 °C"),
]

What melting point value was documented for this compound, CC(C)c1nc(CN=[N+]=[N-])n(Cc2cccnc2)c1Sc1cc(Cl)cc(Cl)c1 ?
99 to 103 °C

What melting point value was documented for this compound, O=C(Nc1ccc(C(CC2CCCC2)C(=O)Nc2ccccn2)cc1)c1cccnc1 (stereo unspecified) ?
160 to 163 °C

What melting point value was documented for this compound, O=[N+]([O-])c1cccc(-c2nnc(Cl)s2)c1 ?
162 to 165 °C
